Where do these numbers come from? They come from patent US7109193B2.

I'd appreciate it if you could supply V2 % inhibition @ 100 nM values for the items below.
Molecular target: human vasopressin V2 receptor subtype (Homo sapiens)
Construct: host or cells: CHO cells (pZeoSV vector)
Test: Vasopressin binding in Chinese Hamster Ovary cell membranes expressing human vasopressin V2 subtype receptors
Details: 100 nM, CHO cell membranes, [3H]arginine vasopressin, values without parentheses
Use % as the unit, but write only the number.

Given the compound CN(C)[C@@H]1CCN(C(=O)c2ccc3n2Cc2ccccc2N(C(=O)c2ccc(-c4cccc5ccccc45)cc2Cl)C3)C1 , what is its reported V2 % inhibition @ 100 nM? 19

What about this compound? COc1ccccc1-c1ccc(C(=O)N2Cc3ccc(C(=O)N4CCC[C@H]4CN4CCCC4)n3Cc3ccccc32)cc1 10

What about this compound? O=C(c1ccc2n1Cc1ccccc1N(C(=O)c1ccc(-c3cccc4ccccc34)cc1Cl)C2)N1CCC(N2CCCCC2)CC1 13

What about this compound? Cc1ccccc1-c1ccc(C(=O)N2Cc3ccc(C(=O)N4CC[C@@H](N(C)C)C4)n3Cc3ccccc32)cc1C 32

What about this compound? Cc1ccccc1-c1ccc(C(=O)N2Cc3ccc(C(=O)N4CCC[C@H]4CN4CCCC4)n3Cc3ccccc32)cc1 12

What about this compound? Cc1ccccc1-c1ccc(C(=O)N2Cc3ccc(C(=O)N4CC[C@@H](N(C)C)C4)n3Cc3ccccc32)cc1 6

What about this compound? COc1cccc(-c2cc(OC)c(C(=O)N3Cc4ccc(C(=O)N5CC[C@@H](N(C)C)C5)n4Cc4ccccc43)cc2Cl)c1 21

====

Target: human vasopressin V2 receptor subtype (Homo sapiens, UniProt P30518)
Construct: host or cells: CHO cells (pZeoSV vector)
Sequence (P30518 whole entry): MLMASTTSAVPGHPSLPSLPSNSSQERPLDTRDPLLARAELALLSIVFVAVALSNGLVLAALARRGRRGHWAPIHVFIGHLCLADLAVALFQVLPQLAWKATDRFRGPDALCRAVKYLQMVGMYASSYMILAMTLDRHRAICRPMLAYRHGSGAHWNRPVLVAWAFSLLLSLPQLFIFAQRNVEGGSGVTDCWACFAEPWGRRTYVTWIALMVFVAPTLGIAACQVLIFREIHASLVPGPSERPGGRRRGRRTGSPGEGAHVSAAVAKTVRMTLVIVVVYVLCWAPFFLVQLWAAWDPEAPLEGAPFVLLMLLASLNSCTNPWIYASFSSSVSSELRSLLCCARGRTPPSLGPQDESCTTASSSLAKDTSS
Test: Vasopressin binding in Chinese Hamster Ovary cell membranes expressing human vasopressin V2 subtype receptors
Conditions: 100 nM, CHO cell membranes, [3H]arginine vasopressin, values without parentheses
test_readout: inhibition at 0.1 µM (%)
Use % as the unit, but write only the number.

Given the compound COc1cc(C(=O)N2Cc3ccc(C(=O)N4CCN(CCN(C)C)CC4)n3Cc3ccccc32)ccc1-c1ccccc1C [Example 201] , what is its reported inhibition at 0.1 µM? 19

What about this compound? COc1cccc(-c2cc(OC)c(C(=O)N3Cc4ccc(C(=O)N5CCN(C(C)C)CC5)n4Cc4ccccc43)cc2Cl)c1 [Example 239] 16

What about this compound? COc1cccc(-c2ccc(C(=O)N3Cc4ccc(C(=O)NCCCN(C)C)n4Cc4ccccc43)cc2OC)c1 [Example 82] 10

What about this compound? COc1cc(C(=O)N2Cc3ccc(C(=O)n4ccnc4)n3Cc3ccccc32)ccc1-c1cccc2ccccc12 [Example 291] 5

What about this compound? Cc1ccccc1-c1ccc(C(=O)N2Cc3ccc(C(=O)N4CCN(CCCN(C)C)CC4)n3Cc3ccccc32)cc1C [Example 247] 21

What about this compound? COc1cccc(-c2ccc(C(=O)N3Cc4ccc(C(=O)N5CCN(C)CC5)n4Cc4ccccc43)cc2OC)c1 [Example 57] 11

What about this compound? COc1cc(C(=O)N2Cc3ccc(C(=O)NCCCn4ccnc4)n3Cc3ccccc32)ccc1-n1c(C)ccc1C [Example 312] 3

What about this compound? C=CCN1CCN(C(=O)c2ccc3n2Cc2ccccc2N(C(=O)c2ccc(-c4cccc5ccccc45)c(OC)c2)C3)CC1 [Example 231] -5

What about this compound? CN(C)CCCN(C)C(=O)c1ccc2n1Cc1ccccc1N(C(=O)c1ccc(-c3cccc4ccccc34)cc1Cl)C2 [Example 109] 14

What about this compound? COc1ccccc1-c1ccc(C(=O)N2Cc3ccc(C(=O)N4CCN(C(C)C)CC4)n3Cc3ccccc32)cc1C [Example 232] 4

What about this compound? Cc1ccccc1-c1ccc(C(=O)N2Cc3ccc(C(=O)N4CCN(C(C)C)CC4)n3Cc3ccccc32)cc1C [Example 233] 23

What about this compound? COc1cccc(-c2ccc(C(=O)N3Cc4ccc(C(=O)NCCN5CCCCC5)n4Cc4ccccc43)cc2C)c1 [Example 151] 6

What about this compound? COc1ccccc1-c1ccc(C(=O)N2Cc3ccc(C(=O)N[C@@H](Cc4c[nH]cn4)C(N)=O)n3Cc3ccccc32)cc1C [Example 288] 32

What about this compound? COc1ccccc1-c1ccc(C(=O)N2Cc3ccc(C(=O)N4CCN(C)CC4)n3Cc3ccccc32)cc1OC [Example 56] 27

What about this compound? COc1cc(C(=O)N2Cc3ccc(C(=O)N4CCN(C)CC4)n3Cc3ccccc32)ccc1-c1cccc2ccccc12 [Example 55] 30

What about this compound? Cc1cc(C(=O)N2Cc3ccc(C(=O)N[C@H]4CN5CCC4CC5)n3Cc3ccccc32)ccc1-c1ccccc1C(F)(F)F [Example 301] 9

What about this compound? COc1ccccc1-c1ccc(C(=O)N2Cc3ccc(C(=O)N(C)C4CCN(C)C4)n3Cc3ccccc32)cc1 (stereo not shown) [Example 187] 31

What about this compound? Cc1ccccc1-c1ccc(C(=O)N2Cc3ccc(C(=O)NCCN4CCCCC4)n3Cc3ccccc32)cc1C [Example 150] 18

What about this compound? COc1cc(-c2ccccc2C)c(Cl)cc1C(=O)N1Cc2ccc(C(=O)N3CCN(CCCN(C)C)CC3)n2Cc2ccccc21 [Example 251] 24

What about this compound? Cc1ccccc1-c1ccc(C(=O)N2Cc3ccc(C(=O)N(C)CCN(C)C)n3Cc3ccccc32)cc1 [Example 91] 17

What about this compound? Cc1cc(C(=O)N2Cc3ccc(C(=O)N(C)C4CCN(C)CC4)n3Cc3ccccc32)ccc1-c1ccccc1C(F)(F)F [Example 184] 9

What about this compound? Cc1ccccc1-c1ccc(C(=O)N2Cc3ccc(C(=O)N4CCC(N5CCCC5)CC4)n3Cc3ccccc32)cc1 [Example 141] 8

What about this compound? CN(C)CCN1CCN(C(=O)c2ccc3n2Cc2ccccc2N(C(=O)c2ccc(-c4cccc5ccccc45)cc2Cl)C3)CC1 [Example 205] 18

What about this compound? COc1cc(C(=O)N2Cc3ccc(C(=O)NCCC4CCCN4C)n3Cc3ccccc32)ccc1-c1cccc2ccccc12 (stereo not shown) [Example 170] 27

What about this compound? COc1cccc(-c2cc(OC)c(C(=O)N3Cc4ccc(C(=O)N5CCC(N6CCCCC6)CC5)n4Cc4ccccc43)cc2Cl)c1 [Example 117] 14

What about this compound? COc1cc(C(=O)N2Cc3ccc(C(=O)N4CCN(C)CC4)n3Cc3ccccc32)ccc1-n1c(C)ccc1C [Example 306] 0

What about this compound? C=CCN1CCN(C(=O)c2ccc3n2Cc2ccccc2N(C(=O)c2ccc(-c4ccccc4C)c(OC)c2)C3)CC1 [Example 225] -4

What about this compound? COc1ccccc1-c1ccc(C(=O)N2Cc3ccc(C(=O)NCCN4CCCCC4)n3Cc3ccccc32)cc1 [Example 152] 10
